Origin of the recorded values: ChEMBL document CHEMBL1137692

- System: Escherichia coli
- protocol-summary: Antibacterial activity against Escherichia coli by bioautographic agar overlay method
- Assay type: functional
recorded-metric: MIC (µg/mL)
Numbers only, in µg/mL.

[
  {
    "molecule": "O=C(N[C@H](CO)[C@H](O)c1ccc([N+](=O)[O-])cc1)C(Cl)Cl",
    "recorded-metric": "MIC",
    "value-reported": 0.1
  },
  {
    "molecule": "Cc1ccc(C2(c3ccc(C)cc3)C(=O)N(C3CCCCC3)C23C(=O)N(C)c2ccccc23)cc1 (stereo not given)",
    "recorded-metric": "MIC",
    "value-reported": 100
  },
  {
    "molecule": "CN1C(=O)C2(c3ccccc31)N(C1CCCCC1)C(=O)C2(c1ccccc1)c1ccccc1 (stereo not given)",
    "recorded-metric": "MIC",
    "value-reported": 100
  },
  {
    "molecule": "Cc1ccc(C2(c3ccc(C)cc3)C(=O)N(C(C)C)C23C(=O)N(C)c2ccccc23)cc1 (stereo not given)",
    "recorded-metric": "MIC",
    "value-reported": 10
  }
]

Attention now shifts to the item below.
Recorded MIC of COc1ccc(C2(c3ccc(OC)cc3)C(=O)N(C(c3ccccc3)c3ccccc3)C23C(=O)N(C)c2ccccc23)cc1 (stereo not given) , please. 50
